Test system: large crabgrass (Digitaria sanguinalis)
Assay summary: Test B pre-/postemergence plant response
Assay type: in vivo
Setup conditions: Postemergence, 125 g ai/ha; visual rating after 13 to 15 days, scale 0 (no effect) to 100 (complete control)
Property name: Plant response rating, Crabgrass, Large
Answer field: number only, no words.

Ask: Look up Plant response rating, Crabgrass, Large: COCCOCCn1c(-c2ccccc2)ncc(C(=O)C2=C(O)CCCC2=O)c1=O
Result: 98

Ask: Param item: CCCCc1ncc(C(=O)C2=C(O)CCCC2=O)c(=O)n1-c1ccccc1C
Result: 80

Ask: What would you report for Cc1ccc(C)c(-n2c(-c3ccccc3)ncc(C(=O)C3=C(O)CCCC3=O)c2=O)c1 ?
Result: 55

---

For each entry below, report its Plant response rating, Ragweed value.
System: ragweed (common ragweed, Ambrosia elatior)
Assay summary: Test B pre-/postemergence plant response
Type: in vivo
Setup conditions: Preemergence, 31 g ai/ha; scale 0 to 100 (0 no effect, 100 complete control)
Please respond with just the number, no unit label.

Ask: Looking for the measured Plant response rating, Ragweed of O=C1CCCC(O)=C1C(=O)c1cnc(-c2ccccc2)n(-c2ccc(F)cc2)c1=O [Compound 24] , can you help?
Result: 85

Ask: Same for O=C1CCCC(O)=C1C(=O)c1cnc(-c2cccc(Br)c2)n(-c2ccccc2)c1=O [Compound 69]
Result: 65

Ask: Repeat for the following compound: Cc1cc(F)ccc1-n1c(-c2ccccc2)ncc(C(=O)C2=C(O)CCCC2=O)c1=O [Compound 48]
Result: 65

Ask: How about CCCn1c(-c2ccccc2)ncc(C(=O)C2=C(O)CCCC2=O)c1=O [Compound 50] ?
Result: 75

---

Test system: large crabgrass (Digitaria sanguinalis)
Assay summary: Test A pre-/postemergence plant response
Type: in vivo
Setup conditions: Preemergence, 125 g ai/ha; 0 to 100 scale, 0 = no effect, 100 = complete control
Assign Plant response rating, Crabgrass, Large to each entry below.

Ask: Item: O=C1CCCC(O)=C1C(=O)c1cnc(C2CCCC2)n(-c2ccccc2)c1=O Test system: large crabgrass (Digitaria sanguinalis) Read-out: Plant response rating, Crabgrass, Large Value: ?
Result: 90

Ask: Next entry: O=C1CCCC(O)=C1C(=O)c1cnc(-c2cccc(Br)c2)n(C2CCCCC2)c1=O
Result: 10

Ask: Next compound up: CCCn1c(-c2ccco2)ncc(C(=O)C2=C(O)C3CCC(C3)C2=O)c1=O (stereo not shown)
Result: 30

Ask: Can you check CCCn1c(-c2ccc(Br)cc2)ncc(C(=O)C2=C(O)CCCC2=O)c1=O next?
Result: 0

---

Assignment: determine reported Plant response rating, Johnsongrass for the given molecules.
Tested on: johnsongrass (Sorghum halepense)
Assay summary: Test B pre-/postemergence plant response
Assay type: in vivo
Setup conditions: Postemergence, 125 g ai/ha; scale 0 to 100 (0 no effect, 100 complete control)
# answer = number (no unit)

Ask: Can you share its Plant response rating, Johnsongrass? I mean this molecule: CCCc1ncc(C(=O)C2=C(O)CCCC2=O)c(=O)n1-c1ccccc1
Result: 60

Ask: Field entry: O=C1CCCC(O)=C1C(=O)c1cnc(-c2ccsc2)n(C2CCCCC2)c1=O
Result: 80

Ask: Note, next up: O=C1CCCC(O)=C1C(=O)c1cnc(-c2ccccc2)n(C2CCOCC2)c1=O
Result: 70

Ask: Now consider O=C1CCCC(O)=C1C(=O)c1cnc(-c2ccsc2)n(C2CCOCC2)c1=O .
Result: 75
